Assay: Hemolytic activity
Type: cell-based
Details: human, 0.5% red blood cell suspension; 1000 µg/mL, blood type O; read-out: hemolysis (average erythrocyte lysis)
property: hemolysis at 1 h, 1000 µg/mL
Mention the unit after the number when you answer.

Exam item: Returns the measured hemolysis at 1 h, 1000 µg/mL for the input compound. Input: O=C(CCl)Nc1ccc(F)c([N+](=O)[O-])c1
Marked response: 8%

###

Assay: Hemolytic activity
Assay type: cell-based
Conditions: human, 0.5% red blood cell suspension, blood types A, B and O; 50–500 µg/mL, all tested blood types; 1 h at 22 ± 2 °C
property: hemolysis at 1 h

Exam item: Returns the measured hemolysis at 1 h for the input molecule. Input: O=C(CCl)Nc1ccc(F)c([N+](=O)[O-])c1
Marked response: 4 to 20%
